testedSystem: hβ4GalT7 (GST-β4GalT7) (Homo sapiens, UniProt Q9UBV7)
Construct: gene B4GALT7; truncated soluble form lacking the first 60 N-terminal amino acids (transmembrane domain and part of stem), GST fusion (tag kept), pET-41a(+), E. coli BL21(DE3), glutathione-Sepharose purified
Sequence (Q9UBV7 61-327): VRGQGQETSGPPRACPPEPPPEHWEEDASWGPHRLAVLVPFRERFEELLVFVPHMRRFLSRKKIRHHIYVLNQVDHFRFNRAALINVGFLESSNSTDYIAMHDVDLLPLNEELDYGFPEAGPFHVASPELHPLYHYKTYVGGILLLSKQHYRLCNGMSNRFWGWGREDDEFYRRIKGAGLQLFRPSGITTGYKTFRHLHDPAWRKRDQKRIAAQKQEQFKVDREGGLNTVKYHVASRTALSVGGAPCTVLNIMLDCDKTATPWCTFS
testSummary: galactosyltransferase competition assay, HPLC-UV
Format: biochemical
measuredQuantity: Ki

*Q* Give Ki for Cc1cc(=O)oc2cc(O[C@@H]3OCC[C@H](O)[C@H]3O)ccc12
*A* 530 µM

FYI, the data here is from paper PMC4367269.
